Below is a list of entries, each paired with its recorded IC50, inhibition of pSTAT5 value.
Target: T1, human Type 1 mutCALR on Ba/F3 cells expressing MPL and Type 1 mutCALR (human)
T1 chain: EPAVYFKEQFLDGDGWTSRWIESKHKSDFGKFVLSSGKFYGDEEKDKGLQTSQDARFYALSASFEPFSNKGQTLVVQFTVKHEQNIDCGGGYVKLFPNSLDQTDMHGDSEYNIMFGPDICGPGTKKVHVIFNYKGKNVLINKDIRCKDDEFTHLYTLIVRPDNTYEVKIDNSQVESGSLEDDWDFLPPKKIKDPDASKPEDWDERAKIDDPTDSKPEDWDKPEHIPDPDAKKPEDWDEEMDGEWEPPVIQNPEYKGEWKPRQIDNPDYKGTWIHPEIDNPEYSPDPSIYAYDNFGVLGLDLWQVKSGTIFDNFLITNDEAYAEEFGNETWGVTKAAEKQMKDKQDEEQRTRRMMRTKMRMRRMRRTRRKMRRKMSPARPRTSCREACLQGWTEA
Assay: cell-based or functional assay
Answer format: numeric, µg/mL implied, no suffix.

# example entries with known answers
# binder, propertyLabel, observedMeasurement
records = [
    ("anti-mutCALR antibody clone 31 (antibody, human IgG1, lambda, V domains shown, human IgG1) VH: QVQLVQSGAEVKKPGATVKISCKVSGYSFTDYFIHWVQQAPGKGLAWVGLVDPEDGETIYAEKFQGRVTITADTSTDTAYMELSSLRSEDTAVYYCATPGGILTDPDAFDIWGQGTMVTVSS VL: QSALTQPASVSGSPGQSVTISCTGTSSDVGGYNYVSWYQHHPGKAPKLMIYDVNKRPSGVPDRFSGSKSGNTASLTISGLQAEDEADYYCSSYIPSSTRWVFGGGTKLTVLG", "IC50, inhibition of pSTAT5", 26.8),
    ("anti-mutCALR antibody clone 38 (antibody, human IgG1, kappa, V domains shown, human IgG1) VH: EVQPVQSGAEVKKPGSSVKVSCKASGGTFSSYAISWVRQAPGQGLEWMGLVDPEDGETIYAEKFRGRVTITADTSTDTAYMELSSLRSEDTAVYYCATEESYGPWGQGTLVTVSS VL: DIQLTQSPSSLSASVGDRVTITCQASQDISNYLNWYQQKPGKAPKLLIYDASNLETGVPSRFSGSGSGTEFTLTISSLQPEDFATYYCQQLNSYPLTFGGGTKLEIKR", "IC50, inhibition of pSTAT5", 3.55),
]

// next item, IC50, inhibition of pSTAT5 requested
q: Recorded IC50, inhibition of pSTAT5 of anti-mutCALR antibody clone 3 (antibody, human IgG1, lambda, V domains shown, human IgG1) VH: EVQLVQSGAEVKKPGASVKVSCKVSGYTLTELSMQWVRQAPGKGLEWMGGFDPDDGETMYAERFQGRLTVTEDTSTDTVYMELRSLTSEDTALYFCATSPGYDFFDYWGQGTLVTVSS VL: SYVLTQPPSVSVAPGQTARITCGGNNIGSKSVHWYQQKPGQAPVLVVYDDSDRPSGIPERFSGSNSGNTATLTINRVEAGDEADYYCQVWDSSNDLLIFGGGTKLTVLG , please.
a: 0.021

Measured values drawn from patent US20230272055A1 for this set.
